For each of the compounds below, state its Uptake into OATP1B1-HEK 293 cells.
# target.or.system: UniProt:Q9Y6L6
# Sequence (Q9Y6L6 whole entry): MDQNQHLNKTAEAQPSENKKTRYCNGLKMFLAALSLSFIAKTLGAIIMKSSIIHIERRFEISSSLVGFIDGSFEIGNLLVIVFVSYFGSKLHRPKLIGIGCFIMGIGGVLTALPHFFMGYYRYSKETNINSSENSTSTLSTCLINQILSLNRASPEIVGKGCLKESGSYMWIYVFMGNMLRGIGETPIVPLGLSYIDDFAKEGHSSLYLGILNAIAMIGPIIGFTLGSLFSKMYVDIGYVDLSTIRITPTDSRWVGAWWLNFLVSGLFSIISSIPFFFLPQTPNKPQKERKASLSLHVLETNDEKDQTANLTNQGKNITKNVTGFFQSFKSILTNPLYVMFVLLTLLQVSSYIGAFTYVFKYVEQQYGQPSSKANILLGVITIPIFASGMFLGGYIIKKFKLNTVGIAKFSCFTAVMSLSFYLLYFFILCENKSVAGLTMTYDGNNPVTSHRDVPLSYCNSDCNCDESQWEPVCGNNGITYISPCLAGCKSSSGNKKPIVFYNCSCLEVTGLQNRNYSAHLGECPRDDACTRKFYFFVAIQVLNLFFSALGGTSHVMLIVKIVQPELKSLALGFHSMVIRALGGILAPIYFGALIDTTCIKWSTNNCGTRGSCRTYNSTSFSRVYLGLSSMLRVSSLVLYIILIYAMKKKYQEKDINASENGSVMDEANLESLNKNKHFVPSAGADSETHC
# experiment.notes: Uptake into stable transfected OATP1B1 HEK 293 cells
# Format: cell-based
# condition: 40 min incubation, relative to RC1 (Gd-EOB-DTPA)

Solved cases below.
>>> print(df.to_string())
                                   compound                           property  measured_value
0  CCOc1ccc(CCOCC(C(=O)O)N2CCN(CC(=O)[O-])CCN(CC(=O)[O-])CCN(CC(=O)[O-])CC2)cc1.[Gd+3] (stereo not drawn)  Uptake into OATP1B1-HEK 293 cells    187 % of RC1
1  CCCCOc1ccc(CCC[C@@H](C(=O)O)N2CCN(CC(=O)[O-])CCN(CC(=O)[O-])CCN(CC(=O)[O-])CC2)cc1.[Gd+3]  Uptake into OATP1B1-HEK 293 cells   1919 % of RC1
2  CCOCCOCCOc1ccc(CC(C(=O)O)N2CCN(CC(=O)[O-])CCN(CC(=O)[O-])CCN(CC(=O)[O-])CC2)cn1.[Gd+3] (stereo not drawn)  Uptake into OATP1B1-HEK 293 cells     66 % of RC1

Look up Uptake into OATP1B1-HEK 293 cells for the entries below, preserving their order.
1. CCOCCOCCOCCOc1ccc(C[C@@H](C(=O)O)N2CCN(CC(=O)[O-])CCN(CC(=O)[O-])CCN(CC(=O)[O-])CC2)cc1.[Gd+3]
2. O=C([O-])CN1CCN(CC(=O)[O-])CCN(C(Cc2ccc(OCC(F)(F)C(F)F)cc2)C(=O)O)CCN(CC(=O)[O-])CC1.[Gd+3] (stereo not drawn)
3. CCOCCOCCOc1ccc(CC(C(=O)[O-])N2CCN(CC(=O)[O-])CCN(C(CC)C(=O)O)CCN(CC(=O)[O-])CC2)cc1.[Gd+3] (stereo not drawn)

["154 % of RC1", "356 % of RC1", "122 % of RC1"]
